Tested on: AMBEL (Ragweed, Common)
Assay: Preemergence herbicidal evaluation
Format: in vivo, Ambrosia artemisifolia
Details: rate 0.0313 kg/ha; rated 4-5 weeks after treatment

{"Compound": "CN1C(=O)CSC1=Nc1cc(N2C(=O)C3=C(CCCC3)C2=O)c(F)cc1Cl", "Assayed target": "AMBEL (Ragweed, Common)", "AMBEL preemergence herbicidal rating": 0.0}
{"Compound": "CCOC(=O)CN1C(=O)C(F)SC1=Nc1cc(-n2c(=O)cc(C(F)(F)F)n(C)c2=O)c(F)cc1Cl (stereo not shown)", "Assayed target": "AMBEL (Ragweed, Common)", "AMBEL preemergence herbicidal rating": 1.0}
{"Compound": "CCOC(=O)CN1C(=O)C(C)SC1=Nc1cc(-n2c(=O)cc(C(F)(F)F)n(C)c2=O)c(F)cc1Cl (stereo not shown)", "Assayed target": "AMBEL (Ragweed, Common)", "AMBEL preemergence herbicidal rating": 4.5}
{"Compound": "COC(=O)CN1C(=O)CSC1=Nc1cc(-n2c(=O)cc(C(F)(F)F)n(C)c2=O)c(F)cc1Cl", "Assayed target": "AMBEL (Ragweed, Common)", "AMBEL preemergence herbicidal rating": 0.7}
